B1: ALKBH7 (parent)
chain: SVICRSLPEGMGPGESGQPPPAC

Variants of: B1
Experiment: protein stability index of a GFP-peptide fusion (GPS, HEK-293T) (PSI 1-6); higher = more stable;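 note: lentivirally expressed fusions sorted by FACS into six bins by GFP to DsRed ratio, PSI derived from sequencing read proportions per bin multiplied by bin number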
Details: c terminus: native
Quantity measured: protein stability index

Would you please look over these solved cases?
- Variant id: "Q18K"
  Experimental result: 2.16
- Variant id: "G10R"
  Experimental result: 1.76
- Variant id: "P13W"
  Experimental result: 1.57
- Variant id: "A22K"
  Experimental result: 5.64
- Variant id: "P13N"
  Experimental result: 2.4

Query: Entry `G14W` has what protein stability index?
Result: 1.26

Query: Similarly, `P13T` ?
Result: 1.81

Query: Similarly, `M11H` ?
Result: 1.98

Query: Similarly, `E9R` ?
Result: 1.91

Query: Similarly, `G17R` ?
Result: 1.38

Query: Similarly, `V2I` ?
Result: 2.77
